The compounds listed here are annotated with their IC50.
# Measured Target: MLK3 (Homo sapiens (Human), UniProt Q16584)
# Sequence (Q16584 whole entry): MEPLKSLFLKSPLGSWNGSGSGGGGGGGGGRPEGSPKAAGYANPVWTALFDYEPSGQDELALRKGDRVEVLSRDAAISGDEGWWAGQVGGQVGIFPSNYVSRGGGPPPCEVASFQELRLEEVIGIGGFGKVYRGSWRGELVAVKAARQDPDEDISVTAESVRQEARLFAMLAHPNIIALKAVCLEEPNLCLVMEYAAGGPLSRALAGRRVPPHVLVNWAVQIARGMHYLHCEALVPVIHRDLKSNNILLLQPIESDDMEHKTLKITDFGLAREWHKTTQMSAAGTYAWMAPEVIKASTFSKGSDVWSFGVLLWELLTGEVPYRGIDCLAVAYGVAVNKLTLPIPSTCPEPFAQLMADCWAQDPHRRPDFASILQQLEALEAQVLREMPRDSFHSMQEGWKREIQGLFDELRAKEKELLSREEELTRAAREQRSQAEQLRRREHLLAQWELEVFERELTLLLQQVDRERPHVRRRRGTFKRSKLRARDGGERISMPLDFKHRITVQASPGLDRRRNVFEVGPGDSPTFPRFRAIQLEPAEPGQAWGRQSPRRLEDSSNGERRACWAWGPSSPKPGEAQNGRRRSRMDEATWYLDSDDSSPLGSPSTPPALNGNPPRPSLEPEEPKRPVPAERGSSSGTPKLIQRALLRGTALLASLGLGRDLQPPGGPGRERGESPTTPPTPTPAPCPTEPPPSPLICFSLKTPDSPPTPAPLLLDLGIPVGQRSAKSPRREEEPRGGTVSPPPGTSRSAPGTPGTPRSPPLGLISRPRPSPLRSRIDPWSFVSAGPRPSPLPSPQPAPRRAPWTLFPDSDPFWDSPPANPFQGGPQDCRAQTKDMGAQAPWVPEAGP
# Assay Overview: Radiometric Filter Plate MLK3 Assay
# Format: biochemical
# Measurement Context: 200 ng (130 nM) MLK3, 1 μM inactive MKK7b, 2 μM cold ATP (Km), 33P ATP, twenty minute incubation; read-out: MK3 IC50
Quantity: IC50

[[record]]
query_smiles = "COc1cc(-c2cnc3[nH]c(=O)n(-c4ccc(N5CCOCC5)nc4)c3n2)cc(OC)c1OC"
measurement = "> 1000 nM"

[[record]]
query_smiles = "Cc1cc(C)cc(-c2cnc3[nH]c(=O)n(-c4ccc5scnc5c4)c3n2)c1"
measurement = "> 1000 nM"

[[record]]
query_smiles = "COc1ccc(-c2cnc3[nH]c(=O)n(-c4ccc5[nH]ncc5c4)c3n2)cc1OC"
measurement = "> 1000 nM"

[[record]]
query_smiles = "Nc1ncc(-c2cnc3[nH]cc(-c4cnc(N)nc4)c3c2)cn1"
measurement = "> 1000 nM"

